Where do the numbers come from? From patent US10040781B2.

- study_system: IKKε (Homo sapiens (Human), UniProt Q14164)
- Sequence (Q14164 whole entry): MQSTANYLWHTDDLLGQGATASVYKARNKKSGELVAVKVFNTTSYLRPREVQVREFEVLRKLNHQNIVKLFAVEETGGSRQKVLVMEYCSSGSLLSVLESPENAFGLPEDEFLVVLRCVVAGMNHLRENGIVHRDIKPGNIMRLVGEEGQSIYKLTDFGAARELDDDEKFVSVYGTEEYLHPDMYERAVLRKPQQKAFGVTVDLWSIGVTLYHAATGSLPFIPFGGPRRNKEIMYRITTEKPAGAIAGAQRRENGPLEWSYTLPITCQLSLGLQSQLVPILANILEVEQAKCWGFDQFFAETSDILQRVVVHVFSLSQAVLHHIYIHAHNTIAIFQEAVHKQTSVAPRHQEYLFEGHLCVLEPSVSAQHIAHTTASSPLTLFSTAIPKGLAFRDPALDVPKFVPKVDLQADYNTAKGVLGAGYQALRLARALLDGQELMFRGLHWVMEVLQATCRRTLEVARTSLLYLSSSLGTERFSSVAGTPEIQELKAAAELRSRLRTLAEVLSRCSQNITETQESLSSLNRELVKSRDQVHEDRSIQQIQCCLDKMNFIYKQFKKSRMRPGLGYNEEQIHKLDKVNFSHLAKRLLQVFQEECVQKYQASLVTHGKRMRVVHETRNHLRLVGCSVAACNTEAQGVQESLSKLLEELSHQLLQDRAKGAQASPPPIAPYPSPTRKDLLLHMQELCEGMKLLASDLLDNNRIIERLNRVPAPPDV
- test_description: IKKε TR-FRET enzymatic assay
- Type: biochemical
- condition_notes: read-out: IKKe IC50
Assign pIC50 to each entry below.
Give bare numbers, as −log10 of the molar value.

Here are 6 compounds together with their reported answers.
>  <compound>
N#Cc1cc(-c2ncnc(Nc3ccc(N4CCN(C5COC5)CC4)cc3)n2)ccc1O[C@H]1CCN(C(=O)c2[nH]ncc2Cl)C[C@H]1F [Example 322]

>  <study_system>
IKKε (Homo sapiens (Human), UniProt Q14164)

>  <pIC50>
8.10

$$$$
>  <compound>
N#Cc1cc(-c2ncnc(Nc3ccc(N4CCN(C5COC5)CC4)cc3)n2)ccc1OC1CCN(C(=O)CNC=O)CC1 [Example 51]

>  <study_system>
IKKε (Homo sapiens (Human), UniProt Q14164)

>  <pIC50>
7.10

$$$$
>  <compound>
C[C@H](O)C(=O)N1CC[C@H](Oc2ccc(-c3ncnc(Nc4ccc(N5CCN(C6COC6)[C@H](C)C5)cc4)n3)cc2C#N)C(F)(F)C1 [Example 246]

>  <study_system>
IKKε (Homo sapiens (Human), UniProt Q14164)

>  <pIC50>
9.00

$$$$
>  <compound>
N#Cc1cc(-c2ncnc(Nc3ccc(N4CCN(C5COC5)CC4)cc3)n2)ccc1O[C@H]1CCCN(C(=O)CO)C1 [Example 127]

>  <study_system>
IKKε (Homo sapiens (Human), UniProt Q14164)

>  <pIC50>
6.25

$$$$
>  <compound>
N#Cc1cc(-c2ncnc(Nc3ccc(N4CCN(C5COC5)CC4)cc3)n2)ccc1O[C@@H]1CCCN(C(=O)CO)C1 [Example 125]

>  <study_system>
IKKε (Homo sapiens (Human), UniProt Q14164)

>  <pIC50>
7.07

$$$$
>  <compound>
N#Cc1cc(-c2ncnc(Nc3cnn(C4CCNCC4)c3)n2)ccc1O[C@H]1CCCC[C@H]1F (racemic) [Example 295]

>  <study_system>
IKKε (Homo sapiens (Human), UniProt Q14164)

>  <pIC50>
8.22

$$$$

Can you give me pIC50 for all of these, one by one?
1. N#Cc1cc(-c2ncnc(Nc3ccc(N4CCN(C5COC5)CC4)cc3)n2)ccc1O[C@@H]1CCNC[C@H]1F [Example 236]
2. C[C@@H](O)C(=O)N1CC[C@@H](Oc2ccc(-c3ncnc(Nc4ccc(N5CCN(C6COC6)CC5)cc4)n3)cc2C#N)C(F)(F)C1 (single isomer, unassigned) [Example 159]
3. C[C@H](O)C(=O)N1CC[C@H](Oc2ccc(-c3ncnc(Nc4ccc5c(c4)NC(=O)C5(C)C)n3)cc2C#N)[C@H](F)C1 [Example 385]
4. COc1cc(Nc2ncnc(-c3ccc(OC4CCS(=O)(=O)CC4)c(C#N)c3)n2)ccc1N1CCN(C2COC2)CC1 [Example 33]
5. N#Cc1cc(-c2ncnc(Nc3ccc(N4CCN(C5COC5)CC4)cc3)n2)ccc1N1CC[C@@H](F)C1 [Example 200]
6. N#Cc1cc(-c2ncnc(Nc3ccc(N4CCN(C5COC5)CC4)cc3)n2)ccc1OC1CCN(C(=O)[C@@H]2CCC(=O)N2)C[C@H]1F (stereo partly shown) [Example 112]

1. 6.63
2. 6.68
3. 8.52
4. 7.74
5. 8.15
6. 8.40

Please provide the recorded pIC50 for CC1(COc2ccc(-c3ncnc(Nc4ccc(N5CCN(C6COC6)CC5)cc4)n3)cc2C#N)COC1 [Example 6] , tested on IKKε (Homo sapiens (Human), UniProt Q14164).
7.70
